molecular target: His6-TEV-PDGFRβ (557-1016) (Homo sapiens (Human))
pIC50: −log10 of the molar value.
// label = rule met if pIC50 is not less than 9, otherwise rule not met

Has Cc1ncc(NC(=O)[C@@H]2C[C@H](C)CN2C)cc1NC(=O)c1cnn2cc(-c3cccnc3O)sc12 [Example 316] a recorded pIC50 greater than or equal to 9?
rule not met

Hello, I need to know if Cc1ncc(NC(=O)CN2CCC3(CCC3)C2)cc1NC(=O)c1cnn2cc(-c3cnn(CCO)c3)sc12 [Example 30] has measured pIC50 not below 9. Thanks!
rule met

Threshold query (pIC50 >= 9) on Cc1ncc(C(=O)NCCN2CCCC23COC3)cc1NC(=O)c1cnn2cc(-c3cn(C)nc3C)sc12 [Example 176]
rule met

I'd appreciate it if you could say whether Cc1ncc(C(=O)NCCN(CCO)CC2CCCCC2)cc1NC(=O)c1cnn2cc(-c3cnn(C)c3)sc12 [Example 235] has pIC50 at least equal to 9.
rule met

Check this compound for pIC50 at or above 9: CCc1cc(C(=O)NCCN2CCCC23CCC3)sc1NC(=O)c1cnn2cc(-c3cnn(C)c3)sc12 [Example 205]
rule not met

// inclusive: pIC50 at least 9? input: Cc1ncc(NC(=O)C2CN(C(C)C)C2)cc1NC(=O)c1cnn2cc(-c3cn(C)nc3C)sc12 [Example 354]
rule met

Quick check, pIC50 >= 9? Cc1ncc(C(=O)NCCN2CC3CCC2CC3)cc1NC(=O)c1cnn2cc(-c3cnn4c3OCCC4)sc12 [Example 477]
rule met

Dear colleague, could you confirm whether Cc1ncc(NC(=O)CNC2CCC2)cc1NC(=O)c1cnn2cc(-c3cnn4c3OCCC4)sc12 [Example 494] has pIC50 at or above 9?
rule met

Hello, I need to know if Cc1ncc(C(=O)NCCN2CCCC2(C)C)cc1NC(=O)c1cnn2cc(-c3cn(C)nc3C)sc12 [Example 174] has measured pIC50 not below 9. Thanks!
rule met

pIC50 >= 9 for Cc1ncc(NC(=O)CN2CCC(C)C2)cc1NC(=O)c1cnn2cc(-c3cn(C)nc3C)sc12 (stereo not drawn) [Example 446] ?
rule met

pIC50 >= 9 for Cc1ncc(NC(=O)CN2[C@H](C)COC[C@@H]2C)cc1NC(=O)c1cnn2cc(-c3cnn(C)c3)sc12 [Example 71] ?
rule not met

Given Cc1ncc(NC(=O)CN2CC(C)(C)C2)cc1NC(=O)c1cnn2cc(-c3cnn(CC(C)O)c3)sc12 (stereo not drawn) [Example 281] , state whether its pIC50 is at least 9.
rule met

Is the recorded value of pIC50 equal to or greater than 9 for this compound? Cc1ncc(NC(=O)CN2CCC(F)(F)C2)cc1NC(=O)c1cnn2cc(-c3cnn(C)c3)sc12 [Example 73]
rule met

----------
molecular target: His6-TEV-PDGFRβ (557-1016) (Homo sapiens (Human), UniProt P09619); assay: PDGFRβ HTRF Assay; type: biochemical; conditions: read-out: PDGFR HTRF IC50
Sequence (P09619 557-1016): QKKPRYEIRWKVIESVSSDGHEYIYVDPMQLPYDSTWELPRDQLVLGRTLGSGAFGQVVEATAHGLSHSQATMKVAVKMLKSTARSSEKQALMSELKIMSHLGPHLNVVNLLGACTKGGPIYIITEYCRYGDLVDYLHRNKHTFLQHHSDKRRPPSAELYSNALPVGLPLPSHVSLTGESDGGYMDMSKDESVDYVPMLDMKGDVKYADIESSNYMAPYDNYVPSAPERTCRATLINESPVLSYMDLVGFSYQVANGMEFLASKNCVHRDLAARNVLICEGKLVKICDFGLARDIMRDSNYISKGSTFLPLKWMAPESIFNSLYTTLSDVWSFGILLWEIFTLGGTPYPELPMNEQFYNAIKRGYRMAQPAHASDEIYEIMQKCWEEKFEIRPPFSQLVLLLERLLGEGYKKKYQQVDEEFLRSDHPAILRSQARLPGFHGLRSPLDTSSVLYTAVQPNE
assayEndpoint: pIC50
A value of pIC50 is the negative decimal logarithm of a concentration given in moles per litre.

Sample COc1ccncc1-c1cn2ncc(C(=O)Nc3cc(NC(=O)CN4CC(C)(C)C4)cnc3C)c2s1 — what was its pIC50?
9.57

Need pIC50, item COc1ncccc1-c1cn2ncc(C(=O)Nc3cc(NC(=O)CN4CC5(COC5)C4)cnc3C)c2s1
9.52

Query: pIC50; subject: Cc1ncc(C(=O)NCCN2C3CCCC2CCC3)cc1NC(=O)c1cnn2cc(-c3cnn(C)c3)sc12
9.52

Given Cc1ncc(C(=O)NCCN2CCCC2(C)C)cc1NC(=O)c1cnn2cc(-c3cccc4c3cnn4C)sc12 , state its recorded pIC50.
9.52

Please look up its pIC50: COCCn1cc(-c2cn3ncc(C(=O)Nc4cc(NC(=O)CN5CCC56CCC6)cnc4C)c3s2)cn1
9.40

For COCC1CN(CC(=O)Nc2cnc(C)c(NC(=O)c3cnn4cc(-c5cnn(C)c5)sc34)c2)CC(C)(C)O1 (stereo not drawn) , what is its reported pIC50?
9.00

Query (molecule): Cc1ncc(C(=O)NCCN2CC3CCC2CC3)cc1NC(=O)c1cnn2cc(-c3cnn(C(F)F)c3)sc12 ; field requested: pIC50
9.40

I'd like to know its pIC50. The molecule in question is Cc1ncc(C(=O)NCCN2CC3CCC2CC3)cc1NC(=O)c1cnn2cc(-c3cnn(CS(C)(=O)=O)c3)sc12
9.22

Reported pIC50, molecule Cc1cc(C(=O)NCCN2CCCC23CC3)sc1NC(=O)c1cnn2cc(-c3cnn(C)c3)sc12 : ____
7.64

# query: pIC50 of entry Cc1ncc(NC(=O)CN2C[C@@H](CO)OC(C)(C)C2)cc1NC(=O)c1cnn2cc(-c3cnn(C)c3)sc12
9.10

Given the molecule Cc1ncc(C(=O)NCCN2CCCC23CCC3)cc1NC(=O)c1cnn2cc(-c3c(C)nn(C)c3C)sc12 , what is its reported pIC50?
9.52

Requested field: pIC50. Item: Cc1ncc(C(=O)NCC2CCCN2C)cc1NC(=O)c1cnn2cc(-c3cnn4c3CCC4)sc12 (stereo not drawn)
9.52

Can you share its pIC50? I mean this molecule: Cc1ncc(NC(=O)CN2CCOC[C@H]2C)cc1NC(=O)c1cnn2cc(-c3cnn(C)c3)sc12
9.22

I am curious: what pIC50 value has been reported for Cc1ncc(NC(=O)CN2CC3(COC3)C2)cc1NC(=O)c1cnn2cc(-c3cnn4c3OCCC4)sc12 ?
9.30

Please give the measured pIC50 for this molecule: Cc1ncc(NC(=O)CN2C[C@H](C)O[C@@H](C)C2)cc1NC(=O)c1cnn2cc(-c3cc[nH]c3)sc12
9.52
